- assay_protocol: NCI Yeast Anticancer Drug Screen. Data for the mlh1 rad18 strain (AID 175)
- reported_conditions: S. cerevisiae mlh1 rad18 strain growth inhibition; at 50.0 µM
About 79,000 compounds went through this panel and 15% of them were active in at least one assay; those are over-represented in the sample as a whole. Activity calls are given as the source filed them. Rule as the data show it: active = growth inhibition above about 70%; inactive = the rest.
# valid calls are active, inactive; nothing else

q: GET /call?item= C1=NC(c2ccccc2)=CN(C2CCCCC2)C1(c1ccccc1)C1CCCCC1 (configuration not stated) returns the recorded outcome of this test.
a: active

q: Same again, this time with O=C1NC(=O)C(c2ccc(C(=O)O)cc2)N1 (configuration not stated)
a: inactive

q: Same again, this time with COC(=O)C1CCC(C)(C(=O)OC)C1(C)C (configuration not stated)
a: inactive

q: Same again, this time with CSC(=S)Nc1cc(C)cc(C)n1
a: inactive

q: Same again, this time with c1ccc(N2CCN(C(c3cccs3)N3CCN(c4ccccc4)CC3)CC2)cc1
a: inactive

q: Same again, this time with Brc1cc2c(cc1CC1CCCCO1)OCO2 (configuration not stated)
a: inactive

q: Same again, this time with CCN(CC)CCOC(c1ccccc1)c1ccccc1
a: inactive

q: Same again, this time with CCCOc1cc2c(cc1C(C)c1ccc(OCC)c(C)c1)OCO2 (configuration not stated)
a: inactive

q: Same again, this time with O=C(c1ccncc1)n1nc(-c2ccccc2)c(N=Nc2ccccc2[N+](=O)[O-])c1-c1ccccc1
a: inactive

q: Same again, this time with CC(=O)CC(=O)c1ccc(Cl)cc1
a: inactive

q: Same again, this time with N#CNS(=O)(=O)c1ccccc1
a: inactive

q: Same again, this time with CCOc1ccccc1NC(=O)Nc1cccc(C(F)(F)F)c1
a: active

q: Same again, this time with NC(=O)N1CCCC1=O
a: inactive

q: Same again, this time with CC(=O)Oc1cc(C(C)C)c(OCCN(C)C)cc1C
a: inactive

q: Same again, this time with CCCCOCCOCC(C)O (configuration not stated)
a: inactive

q: Same again, this time with Cc1cc(Cl)nc2ccc([N+](=O)[O-])cc12
a: inactive

q: Same again, this time with Nc1cccc(Br)n1
a: inactive

###

- assay_protocol: NCI Yeast Anticancer Drug Screen. Data for the sgs1 mgt1 strain (AID 161);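 also: 0% = growth of cultures given vehicle only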
- reported_conditions: S. cerevisiae sgs1 mgt1 strain, at 50.0 µM, hits give high values
The panel holds about 79,000 compounds, 15% with a hit somewhere; the sample as a whole holds those more often.
measured_property: growth inhibition (%)
Your answer should be a plain number; it is taken to be in %.

q: I'd like to know its growth inhibition. The molecule in question is COC(=O)C(c1ccccc1)C(CBr)(OC)c1ccccc1 (stereo unspecified)
a: 12.5

q: Same again, this time with COc1cc(-c2c(C)oc(C)c2C(C)=O)ccc1OCc1ccccc1
a: -9.1

q: Same again, this time with C(=C1\CCC/C(=C/c2ccccc2)C1=NNc1ccccc1)/c1ccccc1
a: 6.45

q: Same again, this time with O=C1CC(SC(=S)N2CCCCC2)C(=O)N1c1ccccc1 (stereo unspecified)
a: -2.55

q: Same again, this time with CC(=O)CC(=O)N1CCC(C)CC1
a: -16.4

q: Same again, this time with COC1(c2ccc(C)cc2)c2cccc3cccc(c23)C1(O)c1ccc(C)cc1 (stereo unspecified)
a: 12

q: Same again, this time with CCOC(CCCl)c1ccccc1 (stereo unspecified)
a: -39.5

q: Same again, this time with O=C(O)c1c2c(nc3ccccc13)Cc1ccccc1-2
a: 10.1

q: Same again, this time with CCC1(C#N)N=C(c2ccccc2)c2ccccc2N1C(=O)Oc1ccccc1 (stereo unspecified)
a: -9.7

q: Same again, this time with CC(=O)NC1CCC(Cc2ccccc2)CC1 (stereo unspecified)
a: -11.3

q: Same again, this time with CCCC(=O)OCC1OC2OC(C)(C)OC2C2OC(C)(C)OC12 (stereo unspecified)
a: 10.8

q: Same again, this time with CC(C)c1cccc(C(C)C)c1NC1=CC(=O)C(=O)c2ccccc21
a: -16.8

q: Same again, this time with O=C(Cc1ccccc1)Nc1cccc2ccccc12
a: 0.8

q: Same again, this time with O=C(N=C1C(=O)C2(CCCCC2)C2(N=C(c3ccccc3)OC2=O)C12CCCCC2)c1ccccc1 (stereo unspecified)
a: 9.35

q: Same again, this time with C=CCC(O)CC=C
a: 7.15

q: Same again, this time with Oc1cccc2c(O)cccc12
a: 26.4

q: Same again, this time with Nc1nc(-c2ccccn2)cc(-c2cc(-c3ccccn3)nc(N)n2)n1
a: -18.2

q: Same again, this time with COc1ccc(C(=O)c2cc(S(=O)(=O)O)c(OC)cc2O)c(O)c1
a: -31.2

q: Same again, this time with O=C1CCC(=O)N1Cl
a: -3.6

q: Same again, this time with O=S(=O)(O)CCCC1S(=O)(=O)OCCOS1(=O)=O
a: -8.4

q: Same again, this time with O=[N+]([O-])c1ccc(/C=N/C(/N=C/c2ccc([N+](=O)[O-])cc2)c2ccc([N+](=O)[O-])cc2)cc1
a: 6.35

q: Same again, this time with CCN(CC)CCNC(=O)c1ccc(NCN2C(=O)NC(c3ccccc3)(c3ccccc3)C2=O)cc1
a: 8.45

q: Same again, this time with O=C(O)c1cccc(Br)c1
a: -8.4

q: Same again, this time with COc1cc([C@@H]2c3cc4c(cc3[C@H](OC3OC5COC(C(C)C)OC5C(O)C3O)C3COC(=O)[C@@H]32)OCO4)cc(OC)c1OC (stereo partly specified)
a: 31

q: Same again, this time with CCOC(=O)Nc1nc2ccccc2n1CN1CCOCC1
a: -18.9

q: Same again, this time with CNc1ccn(C2OC(CO)C(O)C2O)c(=O)n1 (stereo unspecified)
a: -2.05

q: Same again, this time with O=C1OC(c2ccccc2)N(C(=O)c2ccccc2)C1Cc1ccc(OCc2ccccc2)cc1 (stereo unspecified)
a: -5.65

q: Same again, this time with CCCN=C(C)C(C)=NCCC
a: -15.1

q: Same again, this time with C/C=C/C(=O)OC1CCCC1
a: 23.6

q: Same again, this time with Cc1cc(OCc2ccc3ccccc3c2)ccc1Nc1cc(=O)[nH]c(=O)[nH]1
a: 18.6

q: Same again, this time with O=C1NC(N2CCCCC2)=N/C1=C\c1ccccc1
a: -6.1

q: Same again, this time with Cn1ncc2c(NCc3ccccc3)ncnc21
a: 23.1

q: Same again, this time with CC(=O)NCC(OC(C)=O)c1ccc2c(c1)[nH]c1ccccc12 (stereo unspecified)
a: -3.3

q: Same again, this time with CC1=C(CO)C(=O)O[C@@H]([C@@H](C)[C@H]2CC[C@H]3[C@@H]4C[C@H]5O[C@]56[C@@H](O)C=CC(=O)[C@]6(C)[C@H]4CC[C@]23C)C1
a: 86.5

q: Same again, this time with CCC(CC)(C(=O)O)C(=O)O
a: -3.35

q: Same again, this time with Cc1cc2ncn(CO)c2cc1C
a: 18.8
